Just for reference, patent US10130615B2 is where these values come from.

Target: κ-opioid receptor (Homo sapiens, UniProt P41145)
Sequence (P41145 whole entry): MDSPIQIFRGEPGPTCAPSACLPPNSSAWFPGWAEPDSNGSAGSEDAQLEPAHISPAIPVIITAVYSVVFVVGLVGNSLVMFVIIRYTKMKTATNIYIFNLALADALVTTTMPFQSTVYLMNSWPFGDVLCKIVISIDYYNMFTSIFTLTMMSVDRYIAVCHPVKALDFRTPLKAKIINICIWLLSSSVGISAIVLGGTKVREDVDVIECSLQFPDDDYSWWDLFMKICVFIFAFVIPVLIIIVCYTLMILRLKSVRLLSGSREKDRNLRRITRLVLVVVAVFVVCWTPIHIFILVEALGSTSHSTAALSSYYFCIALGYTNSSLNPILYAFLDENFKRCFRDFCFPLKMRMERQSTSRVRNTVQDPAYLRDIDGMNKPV
Experiment: κ-opioid receptor β-Arr2 activity response, U2OS cells
Assay type: cell-based
Set-up: expressed in transfected cells; host or cells: U-2 OS
Conditions: U2OS cells; read-out: β-Arr2 κ EC50
In this section we review reported pEC50 values for a set of compounds.
Recall that pEC50 is obtained by taking minus log10 of the concentration measured in molar.

1. C[C@H]1[C@H]2Cc3ccc(O)cc3[C@]1(CCCCN[C@@H](Cc1ccccc1)C(N)=O)CCN2CC1CC1 ... 9.80
2. COC(=O)[C@H](C)NCC[C@]12CCN(CC3CC3)[C@H](Cc3ccc(OC)cc31)[C@@H]2C ... 6.85
3. COc1ccc2c(c1)[C@@]1(CCOCc3ccccc3)CCN(CC3CC3)[C@@H](C2)[C@H]1C ... 4.99
4. COC(=O)[C@H](CCCCN)NCCCC[C@]12CCN(CC3CC3)[C@H](Cc3ccc(O)cc31)[C@@H]2C ... 10.09
5. COc1ccc2c(c1)[C@]1(CCOCc3ccccc3)CCN(C)[C@H](C2)[C@@H]1C ... 4.79
6. COc1ccc2c(c1)[C@]1(CCNC(=O)[C@@H]3CCCN3C(C)=O)CCN(CC3CC3)[C@H](C2)[C@@H]1C ... 6.39

Exercise: Recall the recorded pEC50 for `C[C@H]1[C@H]2Cc3ccc(O)cc3[C@]1(CCCCN[C@@H](CCCCN)C(=O)O)CCN2CC1CC1` with κ-opioid receptor (Homo sapiens, UniProt P41145) and state it.
Solution: 10.00
